All values here come from PubChem BioAssay (NCI).

# System: HOP-92 NSCLC
# Assay Notes: NCI-60 one-dose screen, 48 h (100 = growth as untreated, 0 = no growth, -100 = all killed)
# Condition Set: 10 µM unless noted
Compounds without any hit were thinned out: in the full panel of roughly 83,000, 20% have a hit.
Mark f for growth values under 70%, and t for everything at or above.

Solved cases below.
Molecule	Group
CS(=O)(=O)c1ccc(-c2cnc3ccc(-c4cccc(S(C)(=O)=O)c4)nn23)cc1	f
O=c1c2cccc3c(NC4CCCCC4)ccc(c32)c2nc3ccccc3n12	f
COc1cc(-c2cc(-c3nc4ccc(Cl)cc4[nH]3)[nH]n2)cc(OC)c1OC	f
O=C(O)c1cn(C2CC2)c2cc(N3CCN(Cc4nc5c(cnn5-c5ccc([N+](=O)[O-])cc5)c(=O)[nH]4)CC3)c(F)cc2c1=O	t
OC(c1cc(-c2ccccc2)nc2ccc(Cl)cc12)C1CCCCN1 (configuration not stated)	f

Q: Test whether the molecule `Nc1ccc2c(c1)C(=O)NC2=O` records growth of 70% or higher.
A: t

Q: Test whether the molecule `CCN(CC)CCCNc1cccc2c(SCc3ccccc3)ccnc12` records growth of 70% or higher.
A: f

Q: Test whether the molecule `Cc1[nH]n(-c2ccccc2)c2nc3nncc3c(-c3ccc(Cl)cc3)c12` records growth of 70% or higher.
A: t

Q: Test whether the molecule Cc1ccc(C2CC3c4ccccc4C2C2CCCCN32)cc1 (configuration not stated) records growth of 70% or higher.
A: t

Q: Test whether the molecule `O=C(NCc1cccc(C(F)(F)F)c1)[C@H](CCC(=O)N1CCN(C2CCCCC2)CC1)N1C(=O)[C@@H](N2C(=O)OC[C@@H]2c2ccccc2)[C@H]1/C(Cl)=C/c1ccccc1` records growth of 70% or higher.
A: f

---

# System: SW-620 colon
# Assay Notes: NCI-60 one-dose screen, 48 h (100 = growth as untreated, 0 = no growth, -100 = all killed)
# Condition Set: 10 µM unless noted
The panel holds about 83,000 compounds, 20% with a hit somewhere; the sample as a whole holds those more often.
Label key: T means growth under 50%; F means growth of 50% or more.

Solved cases below.
Molecule	Test Target	Group
O=C([C@@H](COCc1ccccc1)N1C(=O)[C@@H](N2C(=O)OC[C@@H]2c2ccccc2)[C@H]1/C=C/c1ccccc1)N1CCC(CCN2CCCCC2)CC1	SW-620 colon	F
O=C(/C=C/c1cc2ccccc2[nH]c1=O)/C=C/c1cc2ccccc2[nH]c1=O	SW-620 colon	T
CCOc1ccc(Nc2nc(-c3c(C)nc4ncccn34)cs2)cc1	SW-620 colon	T
COc1cc(C#N)cc(OC)c1OCCN(CCOc1c(OC)cc(C#N)cc1OC)S(=O)(=O)c1ccc(C)cc1	SW-620 colon	F
Cc1cc(-c2nc3ccccc3s2)ccc1NC(=O)COc1ccc(Cl)cc1	SW-620 colon	F

Q: State whether 50% exceeds growth recorded for `CCCCCn1cnc2c(=S)nc[nH]c21` .
A: F

Q: State whether 50% exceeds growth recorded for `CCN(CC)Cc1cc(Nc2c3ccc(Cl)cc3nc3c(C)cccc23)ccc1O` .
A: T

Q: State whether 50% exceeds growth recorded for `CCCCCCCCCCCCCCCC[N+]1(CC)CCCC1` .
A: T

Q: State whether 50% exceeds growth recorded for Cc1nn(-c2nc3ccccc3[nH]2)c2c1C(c1ccc3c(c1)OCO3)CC(=O)N2 (stereo not drawn) .
A: T

Q: State whether 50% exceeds growth recorded for COc1cc(C2CC(=O)c3c(C)nn(-c4nc5ccccc5[nH]4)c3C2)cc(OC)c1OC (stereo not drawn) .
A: F

Q: State whether 50% exceeds growth recorded for `COc1ccccc1-c1ccc2c(N)c(C(=O)c3ccc4c(c3)OCO4)sc2n1` .
A: T

Q: State whether 50% exceeds growth recorded for `Clc1cccc(Nc2nc(Nc3cnc4ccccc4c3)c3[nH]cnc3n2)c1` .
A: F

Q: State whether 50% exceeds growth recorded for `CC(C)[C@H]1COC(=O)N1[C@@H]1C(=O)N([C@@H](CCC(=O)N2CCN(C3CCCC3)CC2)C(=O)N[C@@H]2CCCc3ccccc32)[C@@H]1/C=C/c1cccc(Br)c1` .
A: T

Q: State whether 50% exceeds growth recorded for `O=C(NCc1cccc(C(F)(F)F)c1)[C@H](CCC(=O)N1CCN(C2CCCCC2)CC1)N1C(=O)[C@@H](N2C(=O)OC[C@@H]2c2ccccc2)[C@H]1/C(Cl)=C/c1ccccc1` .
A: F

Q: State whether 50% exceeds growth recorded for `CC(=O)C1=C(O)C=C2Oc3c(C(=O)/C=C/c4c(Cl)cccc4Cl)c(O)c(C)c(O)c3[C@]2(C)C1=O` .
A: T

Q: State whether 50% exceeds growth recorded for `Cc1cc(OCc2ccc(C(F)(F)F)cc2)c2c(c1)C(=O)C=C(NCCN1CCCC1)C2=O` .
A: F

Q: State whether 50% exceeds growth recorded for `COc1cc(-c2c3sc(=O)[nH]c3nc3c2c(=O)[nH]n3C(C)C)cc2c1OCO2` .
A: F

Q: State whether 50% exceeds growth recorded for `O=C(COCc1c(-c2ccccc2)no[n+]1[O-])Nc1ccc(C(=O)/C=C/c2ccc3c(c2)OCO3)cc1` .
A: F
